Target: HDAC6 human recombinant (Homo sapiens (Human), UniProt Q9UBN7)
Sequence (Q9UBN7 whole entry): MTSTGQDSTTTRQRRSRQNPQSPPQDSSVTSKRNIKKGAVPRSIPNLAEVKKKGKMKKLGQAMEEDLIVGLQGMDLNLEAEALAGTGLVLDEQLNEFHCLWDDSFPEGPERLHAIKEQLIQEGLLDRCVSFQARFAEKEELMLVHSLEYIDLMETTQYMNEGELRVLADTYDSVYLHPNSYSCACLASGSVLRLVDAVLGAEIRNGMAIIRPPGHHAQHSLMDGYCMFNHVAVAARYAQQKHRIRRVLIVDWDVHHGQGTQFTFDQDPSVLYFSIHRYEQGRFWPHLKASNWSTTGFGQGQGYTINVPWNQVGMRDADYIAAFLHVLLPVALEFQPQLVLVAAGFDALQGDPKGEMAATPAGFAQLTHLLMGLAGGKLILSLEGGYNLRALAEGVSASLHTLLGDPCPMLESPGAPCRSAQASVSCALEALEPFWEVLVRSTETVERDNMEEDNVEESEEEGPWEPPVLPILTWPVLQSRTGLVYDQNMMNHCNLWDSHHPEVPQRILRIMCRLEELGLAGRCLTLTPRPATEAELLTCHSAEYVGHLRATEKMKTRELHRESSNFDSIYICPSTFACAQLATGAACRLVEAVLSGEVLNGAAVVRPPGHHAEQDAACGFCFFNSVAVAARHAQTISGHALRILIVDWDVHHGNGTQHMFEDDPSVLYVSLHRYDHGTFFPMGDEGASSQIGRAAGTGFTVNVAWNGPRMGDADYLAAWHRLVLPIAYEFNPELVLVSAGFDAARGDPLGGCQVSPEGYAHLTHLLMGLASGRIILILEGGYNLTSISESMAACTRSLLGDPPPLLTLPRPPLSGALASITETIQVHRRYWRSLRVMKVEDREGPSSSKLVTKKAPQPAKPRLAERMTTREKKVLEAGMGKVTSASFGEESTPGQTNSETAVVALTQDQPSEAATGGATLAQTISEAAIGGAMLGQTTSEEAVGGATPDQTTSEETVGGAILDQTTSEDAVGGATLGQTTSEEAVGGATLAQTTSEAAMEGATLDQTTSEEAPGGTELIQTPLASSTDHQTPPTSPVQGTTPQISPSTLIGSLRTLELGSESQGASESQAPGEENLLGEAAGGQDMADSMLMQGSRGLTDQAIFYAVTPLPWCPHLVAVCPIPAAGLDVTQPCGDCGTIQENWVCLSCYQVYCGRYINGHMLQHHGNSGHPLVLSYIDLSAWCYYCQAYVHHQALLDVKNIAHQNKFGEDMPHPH
Assay: HDAC enzyme activity inhibition (in vitro), HDAC6 fluorimetric assay
Format: biochemical
Conditions: samples at 0.1-1000 nM; 37° C. 60 minutes; fluorescence Ex 390 nm, Em 460 nm
Property: pIC50
pIC50 (log units): -log10 of the concentration in mol/L.

Which pIC50 reading was recorded for the compound "CC(C)N1CC2(CN(C(=S)N(Cc3ccc(-c4nnc(C(F)F)o4)cc3F)c3ccc(F)cc3)C2)C1" ?
7.21

Which pIC50 reading was recorded for the compound "CC(C)N1CC2(CN(C(=S)N(Cc3ccc(-c4nnc(C(F)F)o4)cc3F)c3ccc(F)c(Cl)c3)C2)C1" ?
7.11

Which pIC50 reading was recorded for the compound "Fc1ccc(N(Cc2ccc(-c3nnc(C(F)F)o3)cc2)C(=S)N2CC3(C2)CN(C2COC2)C3)cc1F" ?
7.35

Which pIC50 reading was recorded for the compound "CN1CC2(C1)CN(C(=S)N(Cc1ccc(-c3nnc(C(F)F)o3)cc1F)c1cccc(F)c1)C2" ?
7.37
